assay details: Selectivity index, ratio of CC50 for human TZM-bl cells to IC50 for HIV-1 3B infected in human TZM-bl cells
Type: toxicity, cell-based
Task for the reader: assign each of the following compounds its reported Ratio CC50/IC50.

>  <compound>
Cc1cc2c(c(O)c1-c1c(C)cc3c(c1O)/C(=C/N[C@H](C(=O)[O-])C(C)C)C(=O)C(O)=C3C(C)C)/C(=C/N[C@H](C(=O)[O-])C(C)C)C(=O)C(O)=C2C(C)C.[Na+].[Na+] (stereo in doubt; (-)-9a)

>  <Ratio CC50/IC50>
101.82

$$$$
>  <compound>
Cc1cc2c(c(O)c1-c1c(C)cc3c(c1O)/C(=C/N[C@@H](Cc1ccccc1)C(=O)[O-])C(=O)C(O)=C3C(C)C)/C(=C/N[C@@H](Cc1ccccc1)C(=O)[O-])C(=O)C(O)=C2C(C)C.[Na+].[Na+] (stereo in doubt; (+)-13b)

>  <Ratio CC50/IC50>
6.55

$$$$
>  <compound>
Cc1cc2c(c(O)c1-c1c(C)cc3c(c1O)/C(=C/NCC(=O)NCC(=O)NCC(=O)[O-])C(=O)C(O)=C3C(C)C)/C(=C/NCC(=O)NCC(=O)NCC(=O)[O-])C(=O)C(O)=C2C(C)C.[Na+].[Na+] (stereo in doubt; (-)-6a)

>  <Ratio CC50/IC50>
31.71

$$$$

Pending compound:
# Ratio CC50/IC50 of CC[C@H](C)[C@H](N/C=C1\C(=O)C(O)=C(C(C)C)c2cc(C)c(-c3c(C)cc4c(c3O)/C(=C/N[C@H](C(=O)[O-])[C@@H](C)CC)C(=O)C(O)=C4C(C)C)c(O)c21)C(=O)[O-].[Na+].[Na+] (stereo in doubt; (+)-11b) = 17.5

---

Task for the reader: assign each of the following molecules its reported Ratio CC50/IC50.
assay details: Selectivity index, ratio of CC50 for human TZM-bl cells to IC50 for HIV-1 3B infected in human TZM-bl cells
Type: toxicity, cell-based
Answers are plain numbers.

// known answers, use as guide
>  <molecule>
Cc1cc2c(c(O)c1-c1c(C)cc3c(c1O)/C(=C/N[C@@H](C)C(=O)[O-])C(=O)C(O)=C3C(C)C)/C(=C/N[C@@H](C)C(=O)[O-])C(=O)C(O)=C2C(C)C.[Na+].[Na+] (stereo in doubt; (+)-8b)

>  <Ratio CC50/IC50>
17.59

$$$$
>  <molecule>
Cc1cc2c(c(O)c1-c1c(C)cc3c(c1O)/C(=C/NC(CC(=O)[O-])C(=O)NC(C)C(=O)[O-])C(=O)C(O)=C3C(C)C)/C(=C/NC(CC(=O)[O-])C(=O)NC(C)C(=O)[O-])C(=O)C(O)=C2C(C)C.[Na+].[Na+].[Na+].[Na+] (stereo in doubt; (+)-4b)

>  <Ratio CC50/IC50>
9.56

$$$$
>  <molecule>
Cc1cc2c(c(O)c1-c1c(C)cc3c(c1O)/C(=C/N[C@@H](Cc1c[nH]c4ccccc14)C(=O)[O-])C(=O)C(O)=C3C(C)C)/C(=C/N[C@@H](Cc1c[nH]c3ccccc13)C(=O)[O-])C(=O)C(O)=C2C(C)C.[Na+].[Na+] (stereo in doubt; (-)-12a)

>  <Ratio CC50/IC50>
44.66

$$$$

Pending molecule:
# Ratio CC50/IC50 of Cc1cc2c(c(O)c1-c1c(C)cc3c(c1O)/C(=C/N[C@@H](C)C(=O)[O-])C(=O)C(O)=C3C(C)C)/C(=C/N[C@@H](C)C(=O)[O-])C(=O)C(O)=C2C(C)C.[Na+].[Na+] (stereo in doubt; (-)-8a) = 183.29

Values from ChEMBL document CHEMBL4177704
